Reference source: patent US20040253247A1

target: T1, IgG-Fc (UniProt P01857-1 108-330 = IgG part, limits assumed); test: competition ELISA against immobilized Protein A Z-domain for biotinylated IgG-Fc; IC50 extrapolated to zero IgG-Fc
T1 construct: domain: IgG-Fc; also called biotinylated-IgG-Fc; biotin-IgG-Fc
Bridges are numbered along the chain shown (N, C = ends).
PROPERTY: Ki (µM)
Please respond with the number in µM and leave the unit unwritten.

Which Ki is reported for this binder? H-KEASCSYWLGELVWCVAGVE-NH2 (disulfide 5-15 (inferred), Synthetic peptide; disulfide-constrained library origin) [Fc-II peptide KEASCSYWLGELVWCVAGVE]
5

Please look at the following binder next.
What does the record list as Ki for H-ETQRCTWHMGELVWCEREHN-NH2 (disulfide 5-15 (inferred), Synthetic peptide; disulfide-constrained library origin) [Fc-I peptide ETQRCTWHMGELVWCEREHN] ?
5
